Would you mind telling me the reported SV-ARBEC binding (MMFI at 1.3 µM antibody) of each entry?
- MEASURED_TARGET: receptor(s) of FC5 on SV-ARBEC cells (SV40-immortalized adult rat brain microvascular endothelial cells) (rat) (UniProt Q6AY41)
- TEST_METHOD_NOTES: Mirrorball microplate cytometry on SV-ARBEC cells in suspension, anti-c-myc Alexa 488 detection
Answers are plain numbers, in MMFI.

Consider the worked cases shown below.
BINDER	ENDPOINT_RESULT
FC5-H1 (VHH, Humanized variant of FC5, expressed with His5 and c-myc tags; not shown: His5 and c-myc tags) VHH: EVQLVESGGGLVQPGGSLRLSCAASGFKITHYTMGWVRQAPGKGLEWVSRITWGGDNTFYSNSVKGRFTISRDNSKNTLYLQMNSLRAEDTAVYYCAAGSTSTATPLRVDYWGQGTLVTVSS	27
FC5-H2 (VHH, Humanized variant of FC5, expressed with His5 and c-myc tags; not shown: His5 and c-myc tags) VHH: EVQLVESGGGLVQPGGSLRLSCAASGFKITHYTMGWVRQAPGKGLEWVSRITWGGDNTFYSNSVKGRFTISRDNSKNTVYLQMNSLRAEDTAVYYCAAGSTSTATPLRVDYWGQGTLVTVSS	23.1
FC5-H7 (VHH, Humanized variant of FC5, expressed with His5 and c-myc tags; not shown: His5 and c-myc tags) VHH: EVQLVESGGGLVQPGGSLRLSCAASGFKITHYTMGWFRQAPGKEREFVSRITWGGDNTFYSNSVKGRFTISRDNSKNTLYLQMNSLRAEDTAVYYCAAGSTSTATPLRVDYWGQGTLVTVSS	64.2

For every item in the list below, what is its measured SV-ARBEC binding (MMFI at 1.3 µM antibody)?
1. FC5 VHH (parental camelid single domain antibody) (VHH, Llama-derived VHH expressed in E. coli in fusion with His5 and c-myc tags; also called FC5 camelid; sdAb FC5; not shown: His5 and c-myc tags) VHH: DVQLQASGGGLVQAGGSLRLSCAASGFKITHYTMGWFRQAPGKEREFVSRITWGGDNTFYSNSVKGRFTISRDNAKNTVYLQMNSLKPEDTADYYCAAGSTSTATPLRVDYWGKGTQVTVSS
2. FC5-H3 (VHH, Humanized variant of FC5, expressed with His5 and c-myc tags; not shown: His5 and c-myc tags) VHH: EVQLVESGGGLVQPGGSLRLSCAASGFKITHYTMGWFRQAPGKGLEFVSRITWGGDNTFYSNSVKGRFTISRDNSKNTVYLQMNSLRAEDTAVYYCAAGSTSTATPLRVDYWGQGTLVTVSS

Result block:
[20.3, 40.2]

Values from patent US20190241653A1
